Listing: IC50 of selected compounds
test system: dopamine uptake; assay: Biogenic amine uptake inhibition, rat brain synaptosomes, tritiated dopamine; assay type: biochemical, Sprague-Dawley derived rats; conditions: tritiated amine 0.1 μM, 37° C., 4 minutes
Structures can show the parent of a compound that is named as a salt.
Unit µM implied. Number only.

Field: example entries. Status: answers known.
COc1ccc2c(c1)CCCC2CN(C)CCc1cccc(F)c1 (stereo not drawn) [Example 6b, hydrochloride]	10.1
CCN(CCc1cccc(F)c1)CC1CCCc2c1ccc1c2OCO1 (stereo not drawn) [Example 165, hydrochloride]	6.67
Fc1ccccc1C1CCN(CC2CCCc3c2ccc2c3OCO2)C1 (stereo not drawn) [Example 176a]	7.31
CN(CCc1cccc(F)c1)CC1CCCc2c1ccc1c2OCO1 (stereo not drawn)	8.77
CN(CCc1ccccc1)CC1CCCc2cc(O)ccc21 (stereo not drawn) [Example 11, hydrobromide]	10.1

Return reported IC50; argument: CCN(CCc1cccc(F)c1)CC1CCCc2c(OC)cccc21 (stereo not drawn) [Example 72, hydrochloride] 6.83

So what's the measured IC50 for this one? Cc1cc(O)c(O)c2c1C(CN(C)CCc1cccc(F)c1)CCC2 (stereo not drawn) [Example 34, hydrobromide] 9.4

Please report the recorded IC50 for COc1cccc2c1CCCC2CN(C)CCc1cccs1 (stereo not drawn) . 6.09

Reported IC50 for COc1cccc2c1CCCC2CN(C)CCc1cccc(F)c1 (stereo not drawn) [Example 20c] : what is it? 9.17

* * *

system: alpha-2-receptor; experiment: Radioligand binding, alpha-2 adrenoceptor, rat cerebral cortices, [^3 H]-rauwolscine; details: ratio of Ki alpha-1 to Ki alpha-2
Counter-ions that a name gives are not always drawn.
Could you label it true (1) if measured alpha-2 - Selectivity Ki alpha-1/Ki alpha 2 is 200 or higher, and false (0) otherwise?

Would you please look over these solved cases?
COc1ccc2c(c1)CCCC2CN(C)CCc1cccs1 (stereo not drawn)	true (1)
COc1cc2c(cc1C)C(CN(C)CCc1ccco1)CCC2 (stereo not drawn) [Example 128, hydrochloride]	false (0)
CN(CCc1cccs1)CC1CCCc2c1ccc1c2OCO1 (stereo not drawn) [Example 23, hydrochloride]	true (1)

Proceed to the following item.
In plain terms: is recorded alpha-2 - Selectivity Ki alpha-1/Ki alpha 2 at least 200 for COc1cc2c(cc1F)C(CN(C)CCc1ccco1)CCC2 (stereo not drawn) ? false (0)

* * *

tested on: alpha-2-receptor; assay: Radioligand binding, alpha-2 adrenoceptor, rat cerebral cortices, [^3 H]-rauwolscine; details: ratio of Ki alpha-1 to Ki alpha-2
Structures can show the parent of a compound that is named as a salt.
Returns: string. Value is label 1 if measured alpha-2 - Selectivity Ki alpha-1/Ki alpha 2 is below 100, and label 0 if it is greater than or equal to it.

COc1ccc2c(c1)CCCC2CN(C)CCc1cccc(N)c1 (centres unmarked) [Example 67, dihydrochloride]	label 0
CN(c1ccc2c(c1)CCCC2CN1CCC(c2ccccc2)C1)S(C)(=O)=O (centres unmarked) [Example 193, hydrochloride]	label 1
CN(CCc1cccc(O)c1)CC1CCCc2cc(O)ccc21 (centres unmarked) [Example 82, hydrochloride]	label 0

Please let me know if CCN(CCc1ccco1)CC1CCCc2cc(OC)ccc21 (centres unmarked) [Example 43, hydrochloride] shows alpha-2 - Selectivity Ki alpha-1/Ki alpha 2 below 100. label 0

Check if alpha-2 - Selectivity Ki alpha-1/Ki alpha 2 falls below 100 for COc1ccc2c(c1)CCCC2CN(C)CCc1ccsc1 (centres unmarked) [Example 6d, hydrochloride] . label 0
